Listing of entries alongside the reported normalized growth.
experiment: chemical genetic growth profiling, strain panel (AID 1159580);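 note: tested at 20 µM; growth read once vehicle control cultures reached saturation at 30 °C; 1 = growth at the plate median or of vehicle wells; lower values mean less growth of the strain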; settings: S. cerevisiae deletion strains, growth OD, locus YML124C, strain tub3, hits give low values
About 2,000 (36%) of roughly 5,500 compounds were called active. Not shown: some 18% with an inconclusive outcome. The list shows a part of the results.
Write no unit; give the number alone.

Please review the entries below; each comes with its answer.
compound=CO[C@@]1(NC(=O)Cc2cccs2)C(=O)N2C(C(=O)O)=C(COC(N)=O)CS[C@@H]21 readout_type="normalized growth" value_observed=0.993
compound="NC1C[C@H]1c1ccccc1 (stereo partly specified)" readout_type="normalized growth" value_observed=0.987
compound="NC1CC1c1ccccc1 (stereo unspecified)" readout_type="normalized growth" value_observed=0.997
compound=CC[C@H]1OC(=O)[C@H](C)[C@@H](O[C@H]2C[C@@](C)(OC)[C@@H](O)[C@H](C)O2)[C@H](C)[C@@H](O[C@@H]2O[C@H](C)C[C@H](N(C)C)[C@H]2O)[C@](C)(O)C[C@@H](C)[C@@H]2N[C@@H](COCCOC)O[C@H]([C@H]2C)[C@]1(C)O readout_type="normalized growth" value_observed=1
compound=CC1(C)C=Cc2cc3ccc(=O)oc3cc2O1 readout_type="normalized growth" value_observed=0.96
compound=O=C1c2ccccc2C(=O)C1c1ccccc1 readout_type="normalized growth" value_observed=1.01

For this compound ( COc1cc(/C=C/C=O)cc(OC)c1OC ), measured normalized growth is 0.996

For this compound ( C#C[C@]1(O)CCC2C3CCC4=Cc5oncc5C[C@]4(C)C3CC[C@@]21C (stereo partly specified) ), measured normalized growth is 0.92

For this compound ( NC(=O)NO ), measured normalized growth is 0.993

For this compound ( CC(=O)NO ), measured normalized growth is 0.995

For this compound ( CC(=O)c1cc2c(cc1O)OC(C)(C)C=C2 ), measured normalized growth is 0.965

====

assay: chemical genetic growth profiling, strain panel (AID 1159580);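 note: tested at 20 µM; growth read once vehicle control cultures reached saturation at 30 °C; 1 = growth at the plate median or of vehicle wells; lower values mean less growth of the strain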; details: S. cerevisiae deletion strains, growth OD, locus YOR106W, strain vam3
Among all 5,500 compounds or so, about 2,000 (36%) were called active. Another 18% or so got no clear call; they are omitted. Rule as the data show it: active = normalized growth mostly below about 0.91 (no sharp cut-off); inconclusive = no clear call, values can overlap the other calls; inactive = mostly above about 0.92. Some of the results follow.
Pick from YES (active), NO (inactive) when you respond.

Worked examples, 5 molecules total:
molecule="CC(=O)CC1CCCCN1 (stereo not drawn)" label_value=NO
molecule="CC(=O)Oc1cc2c(c(C)c1OC(C)=O)CC1OC13C2(C)CCC1(C)C2CC(C)(C(=O)O)CCC2(C)CCC13C (stereo not drawn)" label_value=NO
molecule=OCc1c[nH]c2ccccc12 label_value=YES
molecule=CC1=C(O)C(=O)C=C2C1=CC=C1[C@@]2(C)CC[C@@]2(C)[C@@H]3C[C@](C)(C(=O)O)CC[C@]3(C)CC[C@]12C label_value=YES
molecule=COc1cc(-c2coc3cc(O[C@@H]4O[C@H](CO)[C@@H](O)[C@H](O)[C@H]4O)c(OC)c(O)c3c2=O)cc(O)c1OC label_value=NO

I would be grateful if you could indicate the recorded call for CCC1C(=O)OCC1Cc1cncn1C (stereo not drawn) .
NO

I would be grateful if you could indicate the recorded call for CO[C@H]1C[C@H](O[C@H]2[C@H](C)[C@@H](OC3O[C@H](C)C[C@H](N(C)C)[C@H]3OC(C)=O)[C@@H](C)C[C@]3(CO3)C(=O)[C@H](C)[C@@H](OC(C)=O)[C@@H](C)[C@@H](C)OC(=O)[C@@H]2C)O[C@@H](C)[C@@H]1OC(C)=O (stereo partly drawn) .
NO

I would be grateful if you could indicate the recorded call for NCCc1c[nH]c2ccccc12 .
NO
